Reported pKi values for a set of compounds
Target: Serine protease 1 (Homo sapiens, UniProt P07477)
Sequence (P07477 whole entry): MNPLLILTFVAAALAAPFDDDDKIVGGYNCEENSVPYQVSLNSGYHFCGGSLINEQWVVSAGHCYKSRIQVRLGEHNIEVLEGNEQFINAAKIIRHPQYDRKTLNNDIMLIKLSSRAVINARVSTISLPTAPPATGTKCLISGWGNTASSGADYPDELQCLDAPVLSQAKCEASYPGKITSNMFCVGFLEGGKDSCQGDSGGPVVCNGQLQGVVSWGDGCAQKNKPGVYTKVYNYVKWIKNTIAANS
pKi: −log10 of the molar value.

# example entries with known answers
[[record]]
substance_smiles = "N=C(N)c1ccc(O)c(/C=C/CNC(=O)c2ccc(-c3ccc(C(N)=O)cc3)cc2)c1"
measurement = 5.85

[[record]]
substance_smiles = "CC(C)(C)c1ccc(C(=O)NCCCc2cc(C(=N)N)ccc2O)cc1"
measurement = 5.66

[[record]]
substance_smiles = "N=C(N)c1ccc(O)c(/C=C/CNC(=O)c2ccc(-c3cccc(C(N)=O)c3)cc2)c1"
measurement = "< 5.54"

[[record]]
substance_smiles = "N=C(N)c1ccc(O)c(CCCNC(=O)c2ccc(-c3ccccc3)cc2)c1"
measurement = "< 5.54"

[[record]]
substance_smiles = "N=C(N)c1ccc(O)c(CCCNC(=O)c2ccc(-c3c[nH]cn3)cc2)c1"
measurement = "~5.54"


// next entry
For the record N=C(N)c1ccc(O)c(CCCNC(=O)c2ccc(-c3ccccn3)s2)c1 , what value of pKi is listed for Serine protease 1 (Homo sapiens, UniProt P07477)?
< 5.54

====

A short record of Ki observed with Serine protease 1 (Homo sapiens) follows.

# example entries with known answers
[[record]]
substance_smiles = "N=C(N)c1ccc(O)c(/C=C/CNC(=O)c2ccc(-c3ccccc3S(N)(=O)=O)cc2)c1"
measurement = "1500 nM"

[[record]]
substance_smiles = "N=C(N)c1ccc(O)c(/C=C/CNC(=O)c2ccc(-c3ccnc(C(N)=O)c3)cc2)c1"
measurement = "2200 nM"

[[record]]
substance_smiles = "N=C(N)c1ccc(O)c(/C=C/CNC(=O)c2ccc(-c3ccccc3)cc2)c1"
measurement = "> 2900 nM"

[[record]]
substance_smiles = "N=C(N)c1ccc(O)c(/C=C/CNC(=O)c2ccc(-c3c[nH]cn3)cc2)c1"
measurement = "1800 nM"


// next entry
For the record N=C(N)c1ccc(O)c(CCCNC(=O)c2ccc(-c3cccc(C(N)=O)c3)cc2)c1 , what value of Ki is listed for Serine protease 1 (Homo sapiens)?
> 2900 nM

====

A short record of pKi observed with Coagulation factor X (Homo sapiens) follows.
Sequence (P00742 41-179 limits assumed): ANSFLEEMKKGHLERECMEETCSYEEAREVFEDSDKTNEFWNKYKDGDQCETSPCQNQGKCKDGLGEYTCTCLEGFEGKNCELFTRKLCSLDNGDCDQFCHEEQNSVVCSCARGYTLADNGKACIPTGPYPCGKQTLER
Sequence (P00742 235-488 limits assumed): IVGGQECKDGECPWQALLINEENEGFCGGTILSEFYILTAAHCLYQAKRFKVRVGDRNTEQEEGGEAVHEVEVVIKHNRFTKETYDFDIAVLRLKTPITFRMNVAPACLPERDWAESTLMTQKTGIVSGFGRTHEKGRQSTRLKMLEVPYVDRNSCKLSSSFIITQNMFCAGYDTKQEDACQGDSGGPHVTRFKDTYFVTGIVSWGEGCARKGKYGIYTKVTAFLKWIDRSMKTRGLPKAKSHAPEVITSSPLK
// field semantics: pKi = negative decimal log of concentration (mol/L)

[[record]]
substance_smiles = "COC(=O)[C@H](Cc1cccc(C(=N)N)c1)[C@@H](C)NC(=O)c1ccc(-c2cccc(C(N)=O)c2)cc1"
reported_property = "pKi"
measurement = 9.30

[[record]]
substance_smiles = "N=C(N)c1ccc(O)c(/C=C/CNC(=O)c2ccc(-c3ccccc3)cc2)c1"
reported_property = "pKi"
measurement = 7.29

[[record]]
substance_smiles = "N=C(N)c1cccc(CCCNC(=O)c2ccc(-c3ccccc3)cc2)c1"
reported_property = "pKi"
measurement = 6.00

[[record]]
substance_smiles = "N=C(N)c1ccc(O)c(/C=C/CNC(=O)c2cc3nnc(O)cc3s2)c1"
reported_property = "pKi"
measurement = 6.74

[[record]]
substance_smiles = "N=C(N)c1ccc(O)c(CCCNC(=O)c2ccc(-c3c[nH]cn3)cc2)c1"
reported_property = "pKi"
measurement = 6.60

[[record]]
substance_smiles = "N=C(N)c1ccc(O)c(CCCNC(=O)c2ccc(-c3cccc(C(N)=O)c3)cc2)c1"
reported_property = "pKi"
measurement = 8.15


// next entry
For the record N=C(N)c1ccc(O)c(/C=C/CNC(=O)c2ccc(-c3cccc(C(N)=O)c3)cc2)c1 , what value of pKi is listed for Coagulation factor X (Homo sapiens)?
8.30

====

Molecular target: Coagulation factor X (Homo sapiens)
Criterion: Ki strictly less than 100 nM. Met: Met. Not met: Not met.

Worked cases, answers included:
[[record]]
substance_smiles = "N=C(N)c1ccc(O)c(/C=C/CNC(=O)c2ccc(-c3ncc[nH]3)cc2)c1"
qualitative_label = "Not met"

[[record]]
substance_smiles = "N=C(N)c1ccc(O)c(CCCNC(=O)c2ccc(-c3ncc[nH]3)cc2)c1"
qualitative_label = "Met"

[[record]]
substance_smiles = "N=C(N)c1ccc(O)c(/C=C/CNC(=O)c2ccc(-c3ccccc3S(N)(=O)=O)cc2)c1"
qualitative_label = "Met"

[[record]]
substance_smiles = "N=C(N)c1ccc(O)c(CCCNC(=O)c2ccc(-c3ccccn3)s2)c1"
qualitative_label = "Not met"


API: the following record is the query input.
Below 100 nM on Ki? Entry N=C(N)c1ccc(O)c(/C=C/CNC(=O)c2ccc(-c3ccnc(C(N)=O)c3)cc2)c1
Met

Where do the numbers come from? From ChEMBL document CHEMBL1133371.
